# Experimental context: in water, 293.05 K
Measured parameter: solubility (mole fraction)

Enquiry: Fill in: solubility (mole fraction) of `O=[N+]([O-])c1ccc(/C=C/c2ccc([N+](=O)[O-])cc2S(=O)(=O)[O-])c(S(=O)(=O)[O-])c1.[Na+].[Na+]` is ___
Return: 0.00197

----------
# Experimental context: in water, 301.45 K
Measured parameter: solubility (mole fraction)
Could you respond with only the numeric value?

Enquiry: Requested field: solubility (mole fraction). Item: `O=[N+]([O-])c1ccc(/C=C/c2ccc([N+](=O)[O-])cc2S(=O)(=O)[O-])c(S(=O)(=O)[O-])c1.[Na+].[Na+]`
Return: 0.00302

----------
# Experimental context: in water, 312.05 K
Measured parameter: solubility (mole fraction)
Form: value (number only, do not type unit).

Enquiry: Please give the measured solubility (mole fraction) for this compound: `O=[N+]([O-])c1ccc(/C=C/c2ccc([N+](=O)[O-])cc2S(=O)(=O)[O-])c(S(=O)(=O)[O-])c1.[Na+].[Na+]`
Return: 0.00498

----------
# Experimental context: in water, 309.85 K
Measured parameter: solubility (mole fraction)
Give the figure by itself; no unit, no explanation.

Enquiry: Fill in: solubility (mole fraction) of `O=[N+]([O-])c1ccc(/C=C/c2ccc([N+](=O)[O-])cc2S(=O)(=O)[O-])c(S(=O)(=O)[O-])c1.[Na+].[Na+]` is ___
Return: 0.00434

----------
# Experimental context: in water, 319.25 K
Measured parameter: solubility (mole fraction)
Respond using a number only.

Enquiry: If you can, please state the reported solubility (mole fraction) value of `O=[N+]([O-])c1ccc(/C=C/c2ccc([N+](=O)[O-])cc2S(=O)(=O)[O-])c(S(=O)(=O)[O-])c1.[Na+].[Na+]` .
Return: 0.00674

----------
# Experimental context: in water, 316.25 K
Measured parameter: solubility (mole fraction)
Output: the number by itself.

Enquiry: What does the data say about its solubility (mole fraction)? Entry: `O=[N+]([O-])c1ccc(/C=C/c2ccc([N+](=O)[O-])cc2S(=O)(=O)[O-])c(S(=O)(=O)[O-])c1.[Na+].[Na+]`
Return: 0.00595

----------
# Experimental context: in water, 296.45 K
Measured parameter: solubility (mole fraction)
// return just the number, without any unit appended

Enquiry: I would be grateful if you could share the reported solubility (mole fraction) for `O=[N+]([O-])c1ccc(/C=C/c2ccc([N+](=O)[O-])cc2S(=O)(=O)[O-])c(S(=O)(=O)[O-])c1.[Na+].[Na+]` .
Return: 0.00228

----------
# Experimental context: in water, 304.55 K
Measured parameter: solubility (mole fraction)

Enquiry: Any idea what its solubility (mole fraction) is? The molecule is `O=[N+]([O-])c1ccc(/C=C/c2ccc([N+](=O)[O-])cc2S(=O)(=O)[O-])c(S(=O)(=O)[O-])c1.[Na+].[Na+]`
Return: 0.00353

----------
# Experimental context: in water, 290.35 K
Measured parameter: solubility (mole fraction)
Please give the numeric answer without any surrounding text.

Enquiry: Which solubility (mole fraction) reading was recorded for the molecule `O=[N+]([O-])c1ccc(/C=C/c2ccc([N+](=O)[O-])cc2S(=O)(=O)[O-])c(S(=O)(=O)[O-])c1.[Na+].[Na+]` ?
Return: 0.0017
